# MIC listing for each entry below
test system: Escherichia coli; test: Antimicrobial activity against acrAB-deficient Escherichia coli TG1 harboring AcrAB efflux pump by agar dilution method; assay type: functional
Where a SMILES comes first, the peptide text is derived from it. Bridges are numbered along the chain shown (N, C = ends). [ ]: non-standard residue; d: D form. The star is where a group is joined. NMePhe(4-NMe2) = CN[C@@H](Cc1ccc(N(C)C)cc1)C(=O)O; Pip(4-oxo) = O=C1CCN[C@H](C(=O)O)C1; Picolinoyl(3-OH) = O=C(c1ncccc1O)*; Phg = N[C@H](C(=O)O)c1ccccc1; dAbu = CC[C@@H](N)C(=O)O
Number in µg/mL, nothing else.

Requested field: MIC. Item: `CC[C@H]1OC(=O)[C@H](C)[C@@H](O[C@H]2C[C@@](C)(OC)[C@@H](O)[C@H](C)O2)[C@H](C)[C@@H](O[C@@H]2O[C@H](C)C[C@H](N(C)C)[C@H]2O)[C@](C)(O)C[C@@H](C)C(=O)[C@H](C)[C@@H](O)[C@]1(C)O`
128

Please give the result for CC[C@H]1NC(=O)[C@@H](NC(=O)c2ncccc2O)[C@@H](C)OC(=O)[C@H](c2ccccc2)NC(=O)[C@@H]2CC(=O)CCN2C(=O)[C@H](Cc2ccc(N(C)C)cc2)N(C)C(=O)[C@@H]2CCCN2C1=O [PRISTINAMYCIN 1A] ({Picolinoyl(3-OH)}-T[dAbu]P[NMePhe(4-NMe2)][Pip(4-oxo)][Phg]; ester 1-C) too.
64

Please give the result for `CO[C@H]1/C=C/O[C@@]2(C)Oc3c(C)c(O)c4c(O)c(c(/C=N/N5CCN(C)CC5)c(O)c4c3C2=O)NC(=O)/C(C)=C\C=C\[C@H](C)[C@H](O)[C@@H](C)[C@@H](O)[C@@H](C)[C@H](OC(C)=O)[C@@H]1C` too.
16

* * *

assay: Antimicrobial activity against aheB-deficient kanamycin-resistant Aeromonas hydrophila subsp. hydrophila ATCC 7966 harboring AheABC efflux pump by agar dilution method in presence of 64 mg/L efflux pump inhibitor phenylalanine-arginine-beta-naphthylamide; type: functional
MEASURED_PARAMETER: MIC (µg/mL)
Number in µg/mL, nothing else.

Completed entries (count: 2):
[[record]]
compound = "CO[C@H]1/C=C/O[C@@]2(C)Oc3c(C)c(O)c4c(O)c(c(/C=N/N5CCN(C)CC5)c(O)c4c3C2=O)NC(=O)/C(C)=C\\C=C\\[C@H](C)[C@H](O)[C@@H](C)[C@@H](O)[C@@H](C)[C@H](OC(C)=O)[C@@H]1C [RIFAMPIN]"
measured_parameter = "MIC"
assay_result = 0.12

[[record]]
compound = "CC[n+]1c(-c2ccccc2)c2cc(N)ccc2c2ccc(N)cc21.[Br-] [HOMIDIUM BROMIDE]"
measured_parameter = "MIC"
assay_result = 512


Continue with the next compound.
Requested field: MIC. Item: CCN1CCN(C(=O)N[C@@H](C(=O)N[C@@H]2C(=O)N3C(C(=O)O)=C(CSc4nnnn4C)CS[C@H]23)c2ccc(O)cc2)C(=O)C1=O [CEFOPERAZONE]
2

* * *

system: Escherichia coli; experiment: Antimicrobial activity against acrAB-deficient Escherichia coli TG1 harboring AcrAB efflux pump by agar dilution method; format: functional
# MIC listing for each entry below
Number in µg/mL, nothing else.

Completed entries (count: 2):
[[record]]
substance_smiles = "COc1cc(Cc2cnc(N)nc2N)cc(OC)c1OC"
assay_result = 0.05

[[record]]
substance_smiles = "CC(=O)O[C@H]1C[C@@]2(C)[C@@H](C[C@@H](O)[C@H]3[C@@]4(C)CC[C@@H](O)[C@@H](C)[C@@H]4CC[C@@]32C)/C1=C(\\CCC=C(C)C)C(=O)O"
assay_result = 512


Continue with the next compound.
Give the reported MIC for `CCN1CCN(C(=O)N[C@@H](C(=O)N[C@@H]2C(=O)N3C(C(=O)O)=C(CSc4nnnn4C)CS[C@H]23)c2ccc(O)cc2)C(=O)C1=O` (system: Escherichia coli).
8
